Target: urease (Jack bean urease) (Canavalia ensiformis, UniProt P07374)
Sequence (P07374 whole entry, looked up): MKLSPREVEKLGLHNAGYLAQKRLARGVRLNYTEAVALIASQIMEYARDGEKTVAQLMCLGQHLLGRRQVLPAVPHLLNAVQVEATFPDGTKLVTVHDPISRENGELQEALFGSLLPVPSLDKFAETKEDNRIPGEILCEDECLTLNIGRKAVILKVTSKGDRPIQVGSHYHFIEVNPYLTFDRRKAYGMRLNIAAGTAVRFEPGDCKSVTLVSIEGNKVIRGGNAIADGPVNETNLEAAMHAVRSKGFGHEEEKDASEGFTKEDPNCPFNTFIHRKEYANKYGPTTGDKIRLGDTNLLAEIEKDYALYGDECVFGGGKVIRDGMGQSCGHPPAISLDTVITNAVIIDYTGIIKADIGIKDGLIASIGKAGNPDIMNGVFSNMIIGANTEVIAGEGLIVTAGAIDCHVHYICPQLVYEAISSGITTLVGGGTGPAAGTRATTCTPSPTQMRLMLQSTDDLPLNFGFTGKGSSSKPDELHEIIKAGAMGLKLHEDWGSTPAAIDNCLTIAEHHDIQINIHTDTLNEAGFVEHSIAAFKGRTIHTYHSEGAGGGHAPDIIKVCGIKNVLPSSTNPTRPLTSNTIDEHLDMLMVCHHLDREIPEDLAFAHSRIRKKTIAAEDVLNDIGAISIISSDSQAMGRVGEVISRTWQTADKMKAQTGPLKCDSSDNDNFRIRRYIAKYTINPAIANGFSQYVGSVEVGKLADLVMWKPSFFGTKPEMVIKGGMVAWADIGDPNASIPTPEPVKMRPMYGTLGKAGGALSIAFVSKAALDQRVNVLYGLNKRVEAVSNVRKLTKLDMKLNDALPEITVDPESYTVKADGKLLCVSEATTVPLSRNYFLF
Test: biochemical
Type: biochemical
reported-endpoint: log10(IC50) (log10 of the value in µM)
// units: µM (pre-log); metric: IC50; scale: log10

# example entries with known answers
* CCOC(=O)/C=C1/S/C(=N\NC(=O)COc2cc(=O)[nH]c3ccc(C)cc23)N(Cc2ccccc2)C1=O | 1.50
* C=CCNC(=S)NNC(=O)COc1cc(=O)n(C)c2ccccc12 | 0.39
* C=CCNC(=S)NNC(=O)COc1cc(=O)[nH]c2ccc(C)cc12 | 0.72
* C=CCN1C(=O)/C(=C\C(=O)OC)S/C1=N\NC(=O)COc1cc(=O)[nH]c2ccc(C)cc12 | 1.50
* CCOC(=O)/C=C1/S/C(=N\NC(=O)COc2cc(=O)n(C)c3ccccc23)N(Cc2ccccc2)C1=O | 1.38

Provide log10(IC50) for all items below, preserving their order.
1. O=C(COc1cc(=O)[nH]c2ccccc12)NNC(=S)NCc1ccccc1
2. COC(=O)/C=C1/SC(=NNC(=O)COc2cc(=O)[nH]c3ccc(C)cc23)N(Cc2ccccc2)C1=O
3. COC(=O)/C=C1/SC(=NNC(=O)COc2cc(=O)[nH]c3ccccc23)N(Cc2ccccc2)C1=O

Response line:
1: 1.05; 2: 1.66; 3: 1.69

###

Molecular target: urease (Jack bean urease) (Canavalia ensiformis)
Test: biochemical
Assay type: biochemical
Conditions: Jack bean urease; triplicate; relative IC50; read-out: IC50 (µM) Urease
reported-endpoint: IC50
Note to self: number, then unit, no commentary.

- CC(=O)NO [Acetohydroxamic acid, reference compound]: 21 µM

Switching to the query record.
# compound NC(N)=S [Thiourea] ; its IC50 = 22.8 µM

###

reported-endpoint: melting point

Below: 3 molecules and their reported melting point.
- COC(=O)/C=C1/SC(=NNC(=O)COc2cc(=O)[nH]c3ccc(C)cc23)N(Cc2ccccc2)C1=O: 241 to 243 °C
- C=CCN1C(=O)/C(=C\C(=O)OCC)S/C1=N\NC(=O)COc1cc(=O)[nH]c2ccc(C)cc12: 239 to 241 °C
- COC(=O)/C=C1/SC(=NNC(=O)COc2cc(=O)n(C)c3ccccc23)N(c2ccccc2)C1=O: 229 to 231 °C

Each of the following entries comes with a recorded value; kindly state melting point for each.
1. CCOC(=O)/C=C1/S/C(=N\NC(=O)COc2cc(=O)[nH]c3ccccc23)N(Cc2ccccc2)C1=O
2. O=C(COc1cc(=O)[nH]c2ccccc12)NNC(=S)NCc1ccccc1

Response line:
1: 249 to 251 °C; 2: 199 to 201 °C
